The reported numbers originate from patent US10590193.

# assayTarget: T1, human VEGF165 (human, UniProt P15692)
# T1 chain: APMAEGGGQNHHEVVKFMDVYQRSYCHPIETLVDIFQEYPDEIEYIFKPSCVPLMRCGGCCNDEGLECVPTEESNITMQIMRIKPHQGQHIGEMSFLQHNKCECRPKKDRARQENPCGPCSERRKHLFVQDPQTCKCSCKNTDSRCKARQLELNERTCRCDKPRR
# experimentSummary: SPR, pH 5
property: Kd (nM)
Note: unit nM is implicit; provide only the numeric part.

-- ask Reported Kd for 509-maxII (antibody, V domains shown) VH: EVQLVESGGGLVQPGGSLRLSCTASGFSLSSYYMSWVRQAPGKGLEWVGILDYVGDTDYASWAKGRFTISKDASKNTVYLQMNSLRAEDTAVYYCARTDDSRGWGLNIWGQGTLVTVSS VL: EIVMTQSPSTLSASVGDRVIITCQASQNIRIWLSWYQQKPGKAPKLLIYKASTLESGVPSRFSGSGSGTEFTLTISSLQPDDFATYYCQNNAHYSTNGGTFGQGTKLTVLG : what is it?
-- reply 3.37
